Property: Kd; scope: individual binders
- measured.target: T1, N-SH2 domain of SHP2 (residues 2-111), recombinant (human, UniProt Q06124 2-111)
- T1 construct: range 2-111; Expressed in E. coli from pET-26b and purified on Ni-NTA
- T1 sequence (looked up): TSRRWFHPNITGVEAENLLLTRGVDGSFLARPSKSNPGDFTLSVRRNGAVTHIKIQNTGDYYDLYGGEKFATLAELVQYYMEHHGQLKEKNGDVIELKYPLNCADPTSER
- assay.comment: fluorescence anisotropy direct binding, labelled peptide titrated with protein
[ ]: non-standard residue; d: D form. CF = 5,6-carboxyfluorescein, N-terminal label; pY = N[C@@H](Cc1ccc(OP(=O)(O)O)cc1)C(=O)O

{"binder": "{CF}-GLNYIDLDL-NH2 [CF-P9Y0 (CF-GLN-Y-IDLDL), unphosphorylated analog of the labeled IRS-1 pY1172 peptide]", "Kd [µM]": 6.6}
{"binder": "{CF}-GLN[pY]IDLDL-NH2 [CF-P9 (CF-GLN-pY-IDLDL), fluorescently labeled IRS-1 pY1172 peptide analog]", "Kd [µM]": 0.053}
